# credit: patent US20250197451A1

Molecular target: T1, biotin-labelled EZH2 protein (UniProt Q15910 1-746, limits assumed, biotin label (EZ-link NHS-PEO4-Biotinylation kit))
T1 construct: Probe in solution (1 ug/ml) on the KDM2B peptide microarray; also called NHS-PEO4-Biotinylation-labelled EZH2 protein; recombinant protein
T1 sequence (Q15910 whole entry): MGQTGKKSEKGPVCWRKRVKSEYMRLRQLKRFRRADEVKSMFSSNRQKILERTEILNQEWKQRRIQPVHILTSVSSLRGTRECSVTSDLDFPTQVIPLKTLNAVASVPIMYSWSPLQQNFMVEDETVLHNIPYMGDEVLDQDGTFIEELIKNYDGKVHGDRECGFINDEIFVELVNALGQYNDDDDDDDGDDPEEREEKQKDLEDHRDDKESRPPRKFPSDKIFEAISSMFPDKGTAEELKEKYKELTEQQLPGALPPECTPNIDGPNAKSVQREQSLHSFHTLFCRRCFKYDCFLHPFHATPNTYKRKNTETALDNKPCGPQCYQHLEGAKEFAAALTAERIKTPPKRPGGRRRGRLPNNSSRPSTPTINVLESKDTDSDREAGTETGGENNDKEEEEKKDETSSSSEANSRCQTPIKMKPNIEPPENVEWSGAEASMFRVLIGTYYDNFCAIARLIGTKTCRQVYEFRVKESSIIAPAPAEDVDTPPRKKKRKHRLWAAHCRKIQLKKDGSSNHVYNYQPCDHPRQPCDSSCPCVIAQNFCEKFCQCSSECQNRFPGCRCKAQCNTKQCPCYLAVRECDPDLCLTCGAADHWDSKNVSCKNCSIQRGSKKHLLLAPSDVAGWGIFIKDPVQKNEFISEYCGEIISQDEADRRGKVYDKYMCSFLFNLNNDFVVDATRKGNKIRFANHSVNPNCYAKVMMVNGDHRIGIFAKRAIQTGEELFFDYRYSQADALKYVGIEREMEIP
Assay: KDM2B peptide array probed with biotin-EZH2 1 ug/ml, SA-HRP/ECL;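 also: 100% is the highest background-corrected spot optical density on the membrane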;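 also: Background-corrected optical density of each spot on the membrane, given as percent of the brightest spot (100%), color developed for 5 minutes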
In plain terms, low Intensity (%), meaning strictly below 3%, gives satisfied, and everything else gives not satisfied.

Strictly below 3% in Intensity (%)? YLSHQDLCVCMRVCR [peptide 216]
satisfied

Strictly below 3% in Intensity (%)? IFLGDRVERCQRIEL [peptide 58]
not satisfied

Strictly below 3% in Intensity (%)? MSMSQFVRYYETPEA [peptide 31]
not satisfied

Strictly below 3% in Intensity (%)? RSSLTYFQQQLKPGK [peptide 170]
satisfied

Strictly below 3% in Intensity (%)? MDVNTQKGTEMSMSQ [peptide 29]
not satisfied

Strictly below 3% in Intensity (%)? ECHFCKDMKKFGGPG [peptide 126]
not satisfied
